Every entry's value here was drawn from ChEMBL document CHEMBL1799960.

Target: Ectonucleotide pyrophosphatase/phosphodiesterase family member 1 (Homo sapiens)
Assay: Inhibition of human NPP1 expressed in COS7 cells assessed as production of p-nitrophenol using Ap5A as the substrate at 100 uM after 30 mins […]
Type: cell-based
Settings: COS-7

{"given smiles": "Nc1ncnc2c1ncn2[C@@H]1O[C@H](COP(=O)(O)CP(=O)(O)OP(=O)(O)CP(=O)(O)OC[C@H]2O[C@@H](n3cnc4c(N)ncnc43)[C@H](O)[C@@H]2O)[C@@H](O)[C@H]1O", "inhibition (%)": 20}
{"given smiles": "BP(=O)(OP(=O)(O)CP(=O)(O)OC[C@H]1O[C@@H](n2cnc3c(N)ncnc32)[C@H](O)[C@@H]1O)OP(=O)(O)CP(=O)(O)OC[C@H]1O[C@@H](n2cnc3c(N)ncnc32)[C@H](O)[C@@H]1O", "inhibition (%)": 60}
{"given smiles": "Nc1ncnc2c1ncn2[C@H]1C[C@H](O)[C@@H](COP(=O)(O)CP(=O)(O)OP(=O)(O)CP(=O)(O)OC[C@H]2O[C@@H](n3cnc4c(N)ncnc43)C[C@@H]2O)O1", "inhibition (%)": 60}
{"given smiles": "BP(=O)(OP(=O)(O)CP(=O)(O)OC[C@H]1O[C@@H](n2cnc3c(N)ncnc32)C[C@@H]1O)OP(=O)(O)CP(=O)(O)OC[C@H]1O[C@@H](n2cnc3c(N)ncnc32)C[C@@H]1O", "inhibition (%)": 60}

---

Target: Ectonucleotide pyrophosphatase/phosphodiesterase family member 3 (Homo sapiens)
Assay: Inhibition of human NPP3 expressed in COS7 cells assessed as amount of inorganic phosphate released using ATP as the substrate at 100 uM after 15 mins by malachite green reagent method
Assay type: cell-based
Conditions: COS-7

{"given smiles": "Nc1ncnc2c1ncn2[C@@H]1O[C@H](COP(=O)(O)CP(=O)(O)OP(=O)(O)CP(=O)(O)OC[C@H]2O[C@@H](n3cnc4c(N)ncnc43)[C@H](O)[C@@H]2O)[C@@H](O)[C@H]1O", "test target": "Ectonucleotide pyrophosphatase/phosphodiesterase family member 3 (Homo sapiens)", "inhibition, %": 65}
{"given smiles": "BP(=O)(OP(=O)(O)CP(=O)(O)OC[C@H]1O[C@@H](n2cnc3c(N)ncnc32)C[C@@H]1O)OP(=O)(O)CP(=O)(O)OC[C@H]1O[C@@H](n2cnc3c(N)ncnc32)C[C@@H]1O", "test target": "Ectonucleotide pyrophosphatase/phosphodiesterase family member 3 (Homo sapiens)", "inhibition, %": 65}
{"given smiles": "BP(=O)(OP(=O)(O)CP(=O)(O)OC[C@H]1O[C@@H](n2cnc3c(N)ncnc32)[C@H](O)[C@@H]1O)OP(=O)(O)CP(=O)(O)OC[C@H]1O[C@@H](n2cnc3c(N)ncnc32)[C@H](O)[C@@H]1O", "test target": "Ectonucleotide pyrophosphatase/phosphodiesterase family member 3 (Homo sapiens)", "inhibition, %": 90}
{"given smiles": "Nc1ncnc2c1ncn2[C@H]1C[C@H](O)[C@@H](COP(=O)(O)CP(=O)(O)OP(=O)(O)CP(=O)(O)OC[C@H]2O[C@@H](n3cnc4c(N)ncnc43)C[C@@H]2O)O1", "test target": "Ectonucleotide pyrophosphatase/phosphodiesterase family member 3 (Homo sapiens)", "inhibition, %": 90}

---

Target: Ectonucleoside triphosphate diphosphohydrolase 1 (Homo sapiens) (UniProt P49961)
Sequence (P49961 whole entry): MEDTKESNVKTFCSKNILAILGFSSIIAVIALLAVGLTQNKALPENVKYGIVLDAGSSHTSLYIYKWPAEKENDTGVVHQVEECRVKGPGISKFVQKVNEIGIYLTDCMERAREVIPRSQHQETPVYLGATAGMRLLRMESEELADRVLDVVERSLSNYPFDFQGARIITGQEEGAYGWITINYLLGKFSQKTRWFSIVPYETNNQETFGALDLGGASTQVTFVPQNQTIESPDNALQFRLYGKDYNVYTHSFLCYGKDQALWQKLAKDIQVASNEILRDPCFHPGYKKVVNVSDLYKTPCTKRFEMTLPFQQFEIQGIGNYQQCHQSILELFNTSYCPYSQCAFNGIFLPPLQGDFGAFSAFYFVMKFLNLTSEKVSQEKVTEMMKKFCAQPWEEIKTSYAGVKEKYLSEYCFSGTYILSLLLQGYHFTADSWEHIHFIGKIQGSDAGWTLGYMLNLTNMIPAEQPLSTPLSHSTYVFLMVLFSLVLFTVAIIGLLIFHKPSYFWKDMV
Assay: Inhibition of human NTPDase1 expressed in COS7 cells assessed as amount of inorganic phosphate released using ATP as the substrate at 100 uM after 15 mins by malachite green reagent method
Assay type: cell-based
Conditions: COS-7
Activity calls are given as the source filed them. The rule behind the calls is not given here.
measured quantity: inhibition

{"given smiles": "Nc1ncnc2c1ncn2[C@H]1C[C@H](O)[C@@H](COP(=O)(O)CP(=O)(O)OP(=O)(O)CP(=O)(O)OC[C@H]2O[C@@H](n3cnc4c(N)ncnc43)C[C@@H]2O)O1", "measured quantity": "inhibition", "reading": "inactive"}
{"given smiles": "Nc1ncnc2c1ncn2[C@@H]1O[C@H](COP(=O)(O)CP(=O)(O)OP(=O)(O)CP(=O)(O)OC[C@H]2O[C@@H](n3cnc4c(N)ncnc43)[C@H](O)[C@@H]2O)[C@@H](O)[C@H]1O", "measured quantity": "inhibition", "reading": "inactive"}
{"given smiles": "BP(=O)(OP(=O)(O)CP(=O)(O)OC[C@H]1O[C@@H](n2cnc3c(N)ncnc32)[C@H](O)[C@@H]1O)OP(=O)(O)CP(=O)(O)OC[C@H]1O[C@@H](n2cnc3c(N)ncnc32)[C@H](O)[C@@H]1O", "measured quantity": "inhibition", "reading": "inactive"}
{"given smiles": "BP(=O)(OP(=O)(O)CP(=O)(O)OC[C@H]1O[C@@H](n2cnc3c(N)ncnc32)C[C@@H]1O)OP(=O)(O)CP(=O)(O)OC[C@H]1O[C@@H](n2cnc3c(N)ncnc32)C[C@@H]1O", "measured quantity": "inhibition", "reading": "inactive"}

---

Biological target: P2Y purinoceptor 1 (Homo sapiens)
Sequence (P47900 whole entry): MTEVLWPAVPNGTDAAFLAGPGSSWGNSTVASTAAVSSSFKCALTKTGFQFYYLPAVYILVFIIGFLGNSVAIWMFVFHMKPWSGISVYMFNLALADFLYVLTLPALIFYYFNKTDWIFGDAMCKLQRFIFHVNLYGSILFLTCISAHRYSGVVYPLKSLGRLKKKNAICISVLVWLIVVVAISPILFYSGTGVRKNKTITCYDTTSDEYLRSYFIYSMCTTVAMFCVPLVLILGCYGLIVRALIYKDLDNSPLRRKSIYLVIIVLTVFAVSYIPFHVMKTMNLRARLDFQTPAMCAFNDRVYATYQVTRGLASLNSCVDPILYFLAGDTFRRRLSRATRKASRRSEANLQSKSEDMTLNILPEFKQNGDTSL
Test: Ratio EC50 for ATP to compound for GFP tagged-human P2Y1 receptor expressed in human 1321N1 cells assessed as elevation in calcium level after 30 mins by fluorescence spectrophotometric analysis
Assay type: functional, cell-based

{"given smiles": "Nc1ncnc2c1ncn2[C@@H]1O[C@H](COP(=O)(O)CP(=O)(O)OP(=O)(O)CP(=O)(O)OC[C@H]2O[C@@H](n3cnc4c(N)ncnc43)[C@H](O)[C@@H]2O)[C@@H](O)[C@H]1O", "qual": "=", "Ratio EC50": 60}
{"given smiles": "BP(=O)(OP(=O)(O)CP(=O)(O)OC[C@H]1O[C@@H](n2cnc3c(N)ncnc32)[C@H](O)[C@@H]1O)OP(=O)(O)CP(=O)(O)OC[C@H]1O[C@@H](n2cnc3c(N)ncnc32)[C@H](O)[C@@H]1O", "qual": "=", "Ratio EC50": 2}
{"given smiles": "Nc1ncnc2c1ncn2[C@H]1C[C@H](O)[C@@H](COP(=O)(O)CP(=O)(O)OP(=O)(O)CP(=O)(O)OC[C@H]2O[C@@H](n3cnc4c(N)ncnc43)C[C@@H]2O)O1", "qual": "=", "Ratio EC50": 200}
{"given smiles": "BP(=O)(OP(=O)(O)CP(=O)(O)OC[C@H]1O[C@@H](n2cnc3c(N)ncnc32)C[C@@H]1O)OP(=O)(O)CP(=O)(O)OC[C@H]1O[C@@H](n2cnc3c(N)ncnc32)C[C@@H]1O", "qual": ">", "Ratio EC50": 200}

---

This section presents compounds with their documented pEC50 values.
Target: P2Y purinoceptor 1 (Homo sapiens)
Test: Agonist activity at GFP tagged-human P2Y1 receptor expressed in human 1321N1 cells assessed as elevation in calcium level after 30 mins by fluorescence spectrophotometric analysis
Assay type: functional, cell-based
pEC50: −log10 of the molar value.

{"given smiles": "Nc1ncnc2c1ncn2[C@@H]1O[C@H](COP(=O)(O)CP(=O)(O)OP(=O)(O)CP(=O)(O)OC[C@H]2O[C@@H](n3cnc4c(N)ncnc43)[C@H](O)[C@@H]2O)[C@@H](O)[C@H]1O", "test target": "P2Y purinoceptor 1 (Homo sapiens)", "qual": "=", "pEC50": 5.05}
{"given smiles": "BP(=O)(OP(=O)(O)CP(=O)(O)OC[C@H]1O[C@@H](n2cnc3c(N)ncnc32)[C@H](O)[C@@H]1O)OP(=O)(O)CP(=O)(O)OC[C@H]1O[C@@H](n2cnc3c(N)ncnc32)[C@H](O)[C@@H]1O", "test target": "P2Y purinoceptor 1 (Homo sapiens)", "qual": "=", "pEC50": 6.52}
{"given smiles": "BP(=O)(OP(=O)(O)CP(=O)(O)OC[C@H]1O[C@@H](n2cnc3c(N)ncnc32)C[C@@H]1O)OP(=O)(O)CP(=O)(O)OC[C@H]1O[C@@H](n2cnc3c(N)ncnc32)C[C@@H]1O", "test target": "P2Y purinoceptor 1 (Homo sapiens)", "qual": "≤", "pEC50": 4.52}
{"given smiles": "Nc1ncnc2c1ncn2[C@H]1C[C@H](O)[C@@H](COP(=O)(O)CP(=O)(O)OP(=O)(O)CP(=O)(O)OC[C@H]2O[C@@H](n3cnc4c(N)ncnc43)C[C@@H]2O)O1", "test target": "P2Y purinoceptor 1 (Homo sapiens)", "qual": "=", "pEC50": 4.52}

---

Target: Ectonucleotide pyrophosphatase/phosphodiesterase family member 1 (Homo sapiens, UniProt P22413)
Sequence (P22413 whole entry): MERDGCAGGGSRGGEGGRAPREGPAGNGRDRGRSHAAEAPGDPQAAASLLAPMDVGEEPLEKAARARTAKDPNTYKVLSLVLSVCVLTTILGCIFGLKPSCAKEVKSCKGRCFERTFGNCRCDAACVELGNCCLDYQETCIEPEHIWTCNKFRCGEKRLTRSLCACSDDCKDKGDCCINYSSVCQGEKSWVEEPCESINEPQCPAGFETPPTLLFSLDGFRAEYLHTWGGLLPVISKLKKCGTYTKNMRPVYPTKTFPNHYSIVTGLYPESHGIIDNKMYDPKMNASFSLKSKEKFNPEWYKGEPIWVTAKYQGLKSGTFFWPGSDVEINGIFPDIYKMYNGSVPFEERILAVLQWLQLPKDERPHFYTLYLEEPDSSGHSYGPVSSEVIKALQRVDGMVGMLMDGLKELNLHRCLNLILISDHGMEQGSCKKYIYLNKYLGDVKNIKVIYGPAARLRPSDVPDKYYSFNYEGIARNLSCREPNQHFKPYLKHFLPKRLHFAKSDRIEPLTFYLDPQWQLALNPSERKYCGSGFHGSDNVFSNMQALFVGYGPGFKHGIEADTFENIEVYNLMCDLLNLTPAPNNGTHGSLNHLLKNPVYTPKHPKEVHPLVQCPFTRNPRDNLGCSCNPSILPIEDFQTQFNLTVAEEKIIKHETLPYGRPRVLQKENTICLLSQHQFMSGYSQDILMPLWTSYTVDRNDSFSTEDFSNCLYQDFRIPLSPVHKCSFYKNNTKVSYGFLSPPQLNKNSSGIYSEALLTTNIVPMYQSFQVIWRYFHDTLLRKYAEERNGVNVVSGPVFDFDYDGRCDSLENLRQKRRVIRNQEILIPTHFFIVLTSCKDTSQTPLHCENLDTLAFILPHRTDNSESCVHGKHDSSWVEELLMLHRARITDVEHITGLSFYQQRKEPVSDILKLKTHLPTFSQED
Experiment: Inhibition of human NPP1 expressed in COS7 cells assessed as enzyme-substrate-inhibitor dissociation constant using pnp-TMP as the substrate after 15 mins […]
Format: cell-based, COS-7
pKi: −log10 of the molar value.

{"given smiles": "BP(=O)(OP(=O)(O)CP(=O)(O)OC[C@H]1O[C@@H](n2cnc3c(N)ncnc32)[C@H](O)[C@@H]1O)OP(=O)(O)CP(=O)(O)OC[C@H]1O[C@@H](n2cnc3c(N)ncnc32)[C@H](O)[C@@H]1O", "pKi": 4.51}
{"given smiles": "Nc1ncnc2c1ncn2[C@@H]1O[C@H](COP(=O)(O)CP(=O)(O)OP(=O)(O)CP(=O)(O)OC[C@H]2O[C@@H](n3cnc4c(N)ncnc43)[C@H](O)[C@@H]2O)[C@@H](O)[C@H]1O", "pKi": 3.83}
{"given smiles": "BP(=O)(OP(=O)(O)CP(=O)(O)OC[C@H]1O[C@@H](n2cnc3c(N)ncnc32)C[C@@H]1O)OP(=O)(O)CP(=O)(O)OC[C@H]1O[C@@H](n2cnc3c(N)ncnc32)C[C@@H]1O", "pKi": 3.84}
{"given smiles": "Nc1ncnc2c1ncn2[C@H]1C[C@H](O)[C@@H](COP(=O)(O)CP(=O)(O)OP(=O)(O)CP(=O)(O)OC[C@H]2O[C@@H](n3cnc4c(N)ncnc43)C[C@@H]2O)O1", "pKi": 4.10}
